- System: MOLT-4 leukemia
- TEST_DETAILS: NCI-60 one-dose screen, 48 h
- EXPERIMENTAL_CONTEXT: 10 µM unless noted
This is part of a sample that, as a whole, favours compounds with a hit. Of some 83,000 tested, about 20% had one in any assay. Calls of active or inactive are those of the source. Rule for the calls: active = growth percent below 10; inactive = the rest.
One label from this list, please: active, inactive

1) O=C1/C(=C/c2ccc(F)cc2)COc2ccc(O)c(O)c21 ... active
2) C=CCc1c(O)c(C(=O)/C=C/c2ccc(Cl)cc2)c(OC)c2ccoc12 ... inactive
3) NC(=O)c1c(NC(=O)c2ccccc2)sc2c1CCC(=O)C2 ... active
4) O=C(/C=C/c1ccccc1)c1cccc(OCCCOc2cccc(C(=O)/C=C/c3ccccc3)c2)c1 ... inactive
5) C=C(C)[C@@H]1CC[C@]2(C(=O)N3CCN(C)CC3)CC[C@]3(C)[C@H](CC[C@@H]4[C@@]5(C)CC(=C/c6ccncc6)/C(=N/O)C(C)(C)[C@@H]5CC[C@]43C)[C@@H]12 ... inactive
6) CCOC(=O)c1c(C)c2c(n1C)CSc1cc(C(=O)c3ccccc3)c(=O)[nH]c1-2 ... inactive
7) COc1ccc(-c2nc(/C=C3\SC(=NCc4ccccc4)NC3=O)c3ccccn23)cc1 ... inactive
8) O=C(/C=C(/C=C/c1cccc2[nH]ccc12)OB(F)F)/C=C/c1cccc2[nH]ccc12 ... active

Asked: Tell me the assay call for O=C(COc1ccc(-c2nc3ccccc3[nH]2)cc1)N=Nc1c(O)[nH]c2ccc(Cl)cc12 please.
Given back: inactive

Asked: For this compound, state the assay outcome: CC(=O)N1N=C(c2ccc(Nc3nc(Nc4ccc(Cl)cc4)nc(Nc4ccc(Cl)cc4)n3)cc2)CC1c1ccco1 (centres undefined)
Given back: inactive

The origin of these recorded values is PubChem BioAssay (NCI).
